Target: GAR transformylase (Sus scrofa)
Assay: In vitro inhibition of hog liver GAR transformylase with (6R)-10-formyl-FH4 as cofactor
MEASUREMENT LABEL: IC50 (nM)
Just the number in nM, nothing appended.

Recall the recorded IC50 for Nc1nc(N)c(CCCNc2ccc(C(=O)N[C@@H](CCC(=O)O)C(=O)O)cc2)c(O)n1 with GAR transformylase (Sus scrofa) and state it.
3000

====

Tested on: MOLT-4
Assay: In vitro inhibitory activity against MOLT-4 T-cell leukemia cell AICAR transformylase
Format: functional, cell-based, Homo sapiens
Details: Homo sapiens, MOLT-4
Here the recorded IC50 is given for each entry.

Nc1nc(N)c(CCCNc2ccc(C(=O)NC(CCC(=O)O)C(=O)O)c(Cl)c2)c(O)n1 (centres undefined) ... 182 µM
Nc1nc(N)c(CCCNc2ccc(C(=O)NC(CCC(=O)O)C(=O)O)cc2F)c(O)n1 (centres undefined) ... 133 µM
Nc1nc(N)c(CCCNc2ccc(C(=O)NC(CCC(=O)O)C(=O)O)c(F)c2)c(O)n1 (centres undefined) ... 79.3 µM

Recall the recorded IC50 for Nc1nc(N)c(CCCSc2ccc(C(=O)NC(CCC(=O)O)C(=O)O)cc2)c(O)n1 (centres undefined) with MOLT-4 and state it.
25.8 µM
